Test system: HPPD polypeptides (wild-type SEQ ID NO:1 and mutants)
Conditions: total change in signal in presence of 50 μM Cmpd. 1, normalised to that without inhibitor; low substrate concentration
Parameter Measured: Residual turnover (%)
The response must be a number in % with no trailing unit.

| Molecule | Unit Name | Residual turnover |
| --- | --- | --- |
| 87 (protein, mutant HPPD polypeptide) MADLYENPMGLMGFEFIEFASPTPGTLEPIFEIMGFTKVATHRSKNVHLYRQGEINLILNNEPNSIASYFAAEHGPSVCGMAFRVKDSQKAYNRALELGAQPIHIDTGPMELNLPAIKGIGGAPLYLIDRFGEGSSIYDIDFVYLEGVERNPVGAGLKVIDHLTHNVYRGRMVYWANFYEKLFNFREARYFDIKGEYTGLTSKAMSAPDGMIRIPLNEESSKGAGQIEEFLMQFNGEGIQHVAFLTDDLVKTWDALKKIGMRFMTAPGDEYYEMLEGRLPDHGEPVDQLQARGILLDGSSVEGDKRLLLQIFSETLMGPVFFEFIQRKGDDGFGPDSFKVLFESAERDQVRRGVLTAD | % | 53 |
| 45 (protein, mutant HPPD polypeptide) MADLYENPMGLMGFEFIEFASPTPGTLEPIFEIMGFTKVATHRSKNVHLYRQGEINLILNNEPNSIASYFAAEHGPSVCGMAFRVKDSQKAYNRALELGAQPIHIDTGPMELNLPAIKGIGGAPLYLIDRFGEGSSIYDIDFVYLEGVERNPVGAGLKVIDHLTHNVYRGRMVYWANFYEKLFNFREARYFDIKGEYTGLTSKAMSAPDGMIRIPLNEESSKGAGQIEEFLMQFNGEGIQHVAFLTDDLVKTWDALKKIGMRFMTAPGDEYYEMLEGRLPDHGEPVDQLQARGILLDGSSVEGDKRLLLQIFSERLMGPVFFEFIQRKGDDGFGPDSFKVLFESVERDQVRRGVLTAD | % | 68 |
| 73 (protein, mutant HPPD polypeptide) MADLYENPMGLMGFEFIEFASPTPGTLEPIFEIMGFTKVATHRSKNVHLYRQGEINLILNNEPNSIASYFAAEHGPSVCGMAFRVKDSQKAYNRALELGAQPIHIDTGPMELNLPAIKGIGGAPLYLIDRFGEGSSIYDIDFVYLEGVERNPVGAGLKVIDHLTHNVYRGRMVYWANFYEKLFNFREARYFDIKGEYTGLTSKAMSAPDGMIRIPLNEESSKGAGQIEEFLMQFNGEGIQHVAFLTDDLVKTWDALKKIGMRFMTAPSDEYYEMLEGRLPDHGEPVDQLQARGILLDGSSVEGDKRLLLQIFSETLMGPVFFEFIQRKGDDGFGPDSFKVLFESVERDQVRRGVLTAD | % | 58 |
| 92 (protein, mutant HPPD polypeptide) MADLYENPMGLMGFEFIEFASPTPGTLEPIFEIMGFTKVATHRSKNVHLYRQGEINLILNNEPNSIASYFAAEHGPSVCGMAFRVKDSQKAYNRALELGAQPIHIDTGPMELNLPAIKGIGGAPLYLIDRFGEGSSIYDIDFVYLEGVERNPVGAGLKVIDHLTHNVYRGRMVYWANFYEKLFNFREARYFDIKGEYTGLTSKAMSAPDGMIRIPLNEESSKGAGQIEEFLMQFNGEGIQHVAFLTDDLVKTWDALKKIGMRFRTAPGDEYYEMLEGRLPDHGEPVDQLQARGILLDGSSVEGDKRLLLQIFSETLMGPVFFEFIQRKGHDGFGPDSFKVLFESAERDQVRRGVLTAD | % | 81 |

Field: next molecule
Asked: Recall and state the measured Residual turnover for 89 (protein, mutant HPPD polypeptide) MADLYENPMGLMGFEFIEFASPTPGTLEPIFEIMGFTKVATHRSKNVHLYRQGEINLILNNEPNSIASYFAAEHGPSVCGMAFRVKDSQKAYNRALELGAQPIHIDTGPMELNLPAIKGIGGAPLYLIDRFGEGSSIYDIDFVYLEGVERNPVGAGLKVIDHLTHNVYRGRMVYWANFYEKLFNFREARYFDIKGEYTGLTSKAMSAPDGMIRIPLNEESSKGAGQIEEFLMQFNGEGIQHVAFLTDDLVKTWDALKKIGMRFMTAPGDEYYEMLEGRLPDHGEPVDQLQARGILLDGSSVEGDKRLLLQIFSETLMGPVFFEFIQRKGDDGFGPDSFKVLFESKERDQVRRGVLTAD .
Given back: 43
